# system-tested: Mast/stem cell growth factor receptor Kit ; KIT ; P10721 (Homo sapiens, UniProt P10721)
# Sequence (P10721 whole entry, one chain of several): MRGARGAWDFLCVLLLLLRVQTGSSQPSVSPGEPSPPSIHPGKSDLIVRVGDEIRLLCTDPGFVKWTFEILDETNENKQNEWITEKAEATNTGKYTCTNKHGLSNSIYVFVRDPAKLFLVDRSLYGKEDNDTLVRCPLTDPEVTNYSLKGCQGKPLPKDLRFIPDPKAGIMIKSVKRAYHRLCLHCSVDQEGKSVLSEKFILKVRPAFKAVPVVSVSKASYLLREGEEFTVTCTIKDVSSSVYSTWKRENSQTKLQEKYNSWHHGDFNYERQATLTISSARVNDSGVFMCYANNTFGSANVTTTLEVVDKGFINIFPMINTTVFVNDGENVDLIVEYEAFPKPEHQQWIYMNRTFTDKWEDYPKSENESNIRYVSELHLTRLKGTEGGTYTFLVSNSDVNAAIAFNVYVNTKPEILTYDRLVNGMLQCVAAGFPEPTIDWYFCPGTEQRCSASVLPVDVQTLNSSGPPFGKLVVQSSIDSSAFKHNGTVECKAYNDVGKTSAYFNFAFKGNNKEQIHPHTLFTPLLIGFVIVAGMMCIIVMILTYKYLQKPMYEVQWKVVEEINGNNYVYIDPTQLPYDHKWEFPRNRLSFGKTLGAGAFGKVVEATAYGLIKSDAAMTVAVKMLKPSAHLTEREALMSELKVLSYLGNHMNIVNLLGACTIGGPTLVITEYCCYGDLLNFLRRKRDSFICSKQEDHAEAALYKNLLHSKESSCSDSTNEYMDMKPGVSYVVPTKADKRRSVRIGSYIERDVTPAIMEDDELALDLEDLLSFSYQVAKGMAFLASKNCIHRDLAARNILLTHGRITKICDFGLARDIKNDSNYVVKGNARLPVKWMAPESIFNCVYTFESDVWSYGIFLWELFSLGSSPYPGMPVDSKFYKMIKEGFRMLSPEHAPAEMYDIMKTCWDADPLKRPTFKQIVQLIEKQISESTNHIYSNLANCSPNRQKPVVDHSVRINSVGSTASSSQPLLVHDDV
# experimental-protocol: biochemical
readout: IC50 (nM)
Report the value in nM with no unit label.

What measured IC50 goes with COc1cc(F)ccc1-c1ncnc(Nc2cccc(C[S@](C)(=N)=O)c2)n1 ?
649

###

# system-tested: Cyclin-dependent-like kinase 5 ; CDK5 ; Q00535 (Homo sapiens, UniProt Q00535)
# Sequence (Q00535 whole entry, one chain of several): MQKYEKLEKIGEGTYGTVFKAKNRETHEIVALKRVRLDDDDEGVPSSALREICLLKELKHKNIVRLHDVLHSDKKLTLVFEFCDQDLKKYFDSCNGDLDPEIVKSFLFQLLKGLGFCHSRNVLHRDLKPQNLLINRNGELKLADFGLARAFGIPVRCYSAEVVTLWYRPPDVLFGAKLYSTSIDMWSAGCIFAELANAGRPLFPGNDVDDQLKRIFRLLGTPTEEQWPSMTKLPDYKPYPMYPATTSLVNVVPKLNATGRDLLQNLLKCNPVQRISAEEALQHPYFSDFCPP
# experimental-protocol: biochemical
# Parameters: species or system human cell line lysate
readout: IC50

Report IC50 for COc1cc(F)ccc1-c1cc(Nc2cc(CS(C)(=N)=O)ccn2)ncc1F (stereo not shown) tested on Cyclin-dependent-like kinase 5 ; CDK5 ; Q00535 (Homo sapiens, UniProt Q00535).
> 10 µM
